Data origin: ChEMBL document CHEMBL1136304

Assay: Partition coefficient (logP)
Format: physicochemical
Conditions: octanol/water
measuredEndpoint: logP
The response must contain the number and no unit.

Given the compound CONC(=O)Nc1ccc(-c2sc3c(c2CN(C)Cc2ccccc2)c(=O)n(-c2ccccc2)c(=O)n3Cc2c(F)cccc2F)cc1 , what is its reported logP?
6.5

----------
Experiment: pKa value was determined
Assay type: physicochemical
measuredEndpoint: pKa
The response must contain the number and no unit.

Given the compound CONC(=O)Nc1ccc(-c2sc3c(c2CN(C)Cc2ccccc2)c(=O)n(-c2ccccc2)c(=O)n3Cc2c(F)cccc2F)cc1 , what is its reported pKa?
5

----------
Ki by entry:
Molecular target: UniProt P30968
Sequence (P30968 whole entry): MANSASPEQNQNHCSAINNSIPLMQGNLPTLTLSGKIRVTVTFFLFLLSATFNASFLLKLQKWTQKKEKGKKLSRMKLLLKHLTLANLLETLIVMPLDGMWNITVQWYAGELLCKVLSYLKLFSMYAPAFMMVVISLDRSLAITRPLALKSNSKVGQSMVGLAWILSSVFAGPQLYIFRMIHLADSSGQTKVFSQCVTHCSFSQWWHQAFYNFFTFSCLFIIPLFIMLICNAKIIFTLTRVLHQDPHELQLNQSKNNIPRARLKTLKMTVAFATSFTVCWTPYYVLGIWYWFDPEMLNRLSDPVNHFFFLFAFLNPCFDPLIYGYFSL
Assay: Binding affinity towards human gonadotropin-releasing hormone receptor
Entry rule: numbers only, all in nM.

- smi: "CN(Cc1ccccc1)Cc1c(-c2ccc(N(C)C)cc2)sc2c1c(=O)n(-c1ccccc1)c(=O)n2Cc1c(F)cccc1F"
  testTarget: "UniProt P30968"
  measuredEndpoint: "Ki"
  resultNumber: 61

Form field: Ki recorded for CCN(CC)CCN(C)Cc1c(-c2ccc([N+](=O)[O-])cc2)sc2c1c(=O)n(-c1ccccc1)c(=O)n2Cc1c(F)cccc1F with UniProt P30968 (enter value)
76

Form field: Ki recorded for CC(C)Nc1ccc(-c2sc3c(c2CN(C)Cc2ccccc2)c(=O)n(-c2ccccc2)c(=O)n3Cc2c(F)cccc2F)cc1 with UniProt P30968 (enter value)
88

Form field: Ki recorded for CC(C)C(=O)Nc1ccc(-c2sc3c(c2CN(C)Cc2ccccc2)c(=O)n(-c2ccccc2)c(=O)n3Cc2c(F)cccc2F)cc1 with UniProt P30968 (enter value)
2.9

Form field: Ki recorded for C[C@H](N)C(=O)Nc1ccc(-c2sc3c(c2CN(C)Cc2ccccc2)c(=O)n(-c2ccccc2)c(=O)n3Cc2c(F)cccc2F)cc1 with UniProt P30968 (enter value)
43

Form field: Ki recorded for CN(Cc1ccccc1)Cc1c(-c2ccc(N)cc2)sc2c1c(=O)n(-c1ccccc1)c(=O)n2Cc1c(F)cccc1F with UniProt P30968 (enter value)
36

Form field: Ki recorded for CN(Cc1ccccc1)Cc1c(-c2ccc(NC(=O)CCN)cc2)sc2c1c(=O)n(-c1ccccc1)c(=O)n2Cc1c(F)cccc1F with UniProt P30968 (enter value)
360

Form field: Ki recorded for CN(Cc1ccccc1)Cc1c(-c2ccc([N+](=O)[O-])cc2)sc2c1c(=O)n(-c1ccccc1)c(=O)n2Cc1c(F)cccc1F with UniProt P30968 (enter value)
180

Form field: Ki recorded for CN(CCc1ccccn1)Cc1c(-c2ccc([N+](=O)[O-])cc2)sc2c1c(=O)n(-c1ccccc1)c(=O)n2Cc1c(F)cccc1F with UniProt P30968 (enter value)
0.6
